Values compiled from PubChem BioAssay.

Test system: XIP peptide (Xip251-270) binding
Experiment: small-molecule binders of XIP peptide, primary screen, biochemical, small-molecule microarray, fluorescence 635/667 nm, 0.1 µg/mL protein (AID 1182)
Details: fluorescent protein binding, 635 nm, higher = more signal, called active from +8 up or from −8 down
metric: composite z-score
# print the numeric value only

The cases that follow already have their composite z-score on record.
[[record]]
molecule = "CCc1cccc(NC(=O)O[C@H]2[C@H](OC(=O)Nc3ccc4c(c3)OCO4)[C@H](OC(=O)Nc3ccc4c(c3)OCO4)[C@@H](OC)O[C@@H]2CO)c1"
recorded_measurement = 2.3

[[record]]
molecule = "COc1ccc([Si](C)(C)[C@H]2[C@H](CCn3cc([C@H](O)c4ccccc4)nn3)O[C@@]3(C(=O)N(c4ccccc4)c4ccccc43)[C@@H]2C)cc1"
recorded_measurement = -0.292

[[record]]
molecule = "CC(=O)c1ccc(C(O)C2C=CC3C(=O)N(C)C(=O)C3N2NC(=O)OC(C)(C)C)cc1 (stereo not drawn)"
recorded_measurement = 2.44

[[record]]
molecule = "CCCCN1CC=CC23O[C@@H]4C=CCOC(=O)[C@@H]4[C@H]2C(=O)N(CCO)[C@@H]3C1=O (stereo partly drawn)"
recorded_measurement = 0.64

[[record]]
molecule = "COC(=O)C1(CC(C)C)C=C2C(=C(C(C)C)C(=O)C2C)CN1 (stereo not drawn)"
recorded_measurement = -0.418

[[record]]
molecule = "CN1C(=O)[C@]2(CCC(=O)OC(C)(C)C)N=C(c3ccc(OCCCO)cc3)O[C@@H]2c2ccccc21"
recorded_measurement = 0.0974

[[record]]
molecule = "CCCCC(=C=CC[C@H](O)c1ccc(OCCO)cc1)C[C@H](O)c1ccccn1"
recorded_measurement = 0.575

[[record]]
molecule = "CC(C)=CCN(C(=O)C#Cc1ccccc1)[C@H](CO)c1ccccc1"
recorded_measurement = -0.415

[[record]]
molecule = "COc1ccc(C#Cc2ccc3c(c2)[C@]2(C(=O)N3)[C@H](C(=O)Nc3nc4ccccc4s3)[C@H]3C(=O)O[C@H](c4ccccc4)[C@H](c4ccccc4)N3[C@@H]2c2ccc(OCCO)cc2)cc1"
recorded_measurement = -0.509

[[record]]
molecule = "CN(C)CCCNC(=O)[C@@]1(Cc2ccccc2I)c2ccccc2C(=O)N(Cc2ccccc2)[C@H]1c1ccc(CO)cc1"
recorded_measurement = 0.869


Ask | Which measured composite z-score value corresponds to O=C1C2C=CC(C(O)c3cccs3)N(Nc3ccccc3)C2C(=O)N1c1ccccc1 (stereo not drawn) ?
Reply | 0.308

Ask | Which measured composite z-score value corresponds to CN1C(=O)C2C(C1=O)C1C=C(c3ccc(CO)cc3)C2C(c2cccs2)N1C (stereo not drawn) ?
Reply | 0.482

Ask | Which measured composite z-score value corresponds to CCCCC(O)C1C=CC2C(=O)NC(=O)C2N1Nc1ccc(Cl)cc1Cl (stereo not drawn) ?
Reply | -0.0109

Ask | Which measured composite z-score value corresponds to COc1ccc(CCNC(=O)[C@@]2(C)c3ccccc3C(=O)N(Cc3cc(C(F)(F)F)cc(C(F)(F)F)c3)[C@H]2c2ccc(CO)cc2)cc1 ?
Reply | 0.517

Ask | Which measured composite z-score value corresponds to COC(=O)[C@@]1(Cc2ccccc2)[C@@H]2[C@@H](CC(=O)[C@H]2CC(=O)C(=O)N(C)C)CN1C(=O)c1ccccc1 ?
Reply | -0.282

Ask | Which measured composite z-score value corresponds to COCCOC(=O)N1C(=O)[C@@]2(c3ccccc31)[C@H](c1ccc(OCCO)cc1)N1[C@H](c3ccccc3)[C@H](c3ccccc3)OC(=O)[C@H]1[C@@H]2C(=O)N1CCN(c2ncccn2)CC1 ?
Reply | 0.522

Ask | Which measured composite z-score value corresponds to N#Cc1ccc(C(O)C2C=CC3C(=O)NC(=O)C3N2Nc2ccccn2)cc1 (stereo not drawn) ?
Reply | -0.108

Ask | Which measured composite z-score value corresponds to [N-]=[N+]=NCc1ccccc1C[C@]1(C(=O)O)COC(c2ccc(OCCCO)cc2)=N1 ?
Reply | -0.4
